# assay-system: LTD4 /E4 receptors (Cavia porcellus)
# Construct: membrane fractions, containing the LTD4 /E4 receptors, are prepared from guinea-pig lung parenchyma
# Sequence (Q2NNR5 whole entry): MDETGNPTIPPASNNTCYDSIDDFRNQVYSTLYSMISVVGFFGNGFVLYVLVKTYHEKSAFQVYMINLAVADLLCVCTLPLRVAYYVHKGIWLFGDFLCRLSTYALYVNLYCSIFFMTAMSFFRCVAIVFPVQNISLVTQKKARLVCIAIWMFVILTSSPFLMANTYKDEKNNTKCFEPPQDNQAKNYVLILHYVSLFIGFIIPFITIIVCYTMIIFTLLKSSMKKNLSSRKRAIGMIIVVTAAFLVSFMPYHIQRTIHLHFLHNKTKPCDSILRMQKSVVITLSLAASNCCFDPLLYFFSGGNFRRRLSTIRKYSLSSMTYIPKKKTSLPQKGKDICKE
# procedure-details: receptor-ligand binding assay (3H-LTD4)
# condition-context: membrane fractions from guinea-pig lung parenchyma, 1nM 3H-LTD4, 30 minutes at 22° C.; Ki from IC50 by Cheng-Prusoff
readout-label: Ki (nM)

CCC(C)CNC(=O)c1ccc2cccc(Cc3ccc(C(=O)NS(=O)(=O)c4ccccc4C)cc3OC)c2c1 (stereo not shown) :: 3.16

Attribution: patent US5095038A
